As shown below, each of these binders has a reported koff value.
Biological target: T1, mouse programmed cell death protein 1 Fc fusion protein (mPD-1-Fc), mPD-1 C60S (aa 25-167) (Mus musculus, UniProt Q02242, stabilised)
T1 construct: not cleaved; source: Expi293F, purified (Protein A, SEC; dimeric fraction); not shown: Fc (human), C-terminal, kept
Experiment: SPR; Carterra LSA; Fab from the ammonium sulfate precipitate of the culture supernatant immobilised on a NiHC200M chip; hPD-1 (1-1024 nM) or mPD-1-Fc (4-1024 nM) as analyte, fourfold dilution series, no regeneration; HBS-EP pH 7.4, 25 °C; medians over the spots of a construct, KD = koff/kon
Conditions: one partner purified

As a guide, the following entries are already answered.
BINDER	koff
toripalimab Fab H.V50A (Fab, V domains shown, heavy chain of Sm3 with this change; numbers count from the chain's first residue; as the light chain of Sm3; source: Brevibacillus, culture supernatant (ammonium sulfate precipitate); not shown: 6xHis, C-terminal, kept; 6xHN, C-terminal, kept) VH: QGQLVQSGAEVKKPGASVKVSCKASGYTFTDYEMHWVRQAPIHGLEWIGAIESETGGTAYNQKFKGRVTITADKSTSTAYMELSSLRSEDTAVYYCAREGITTVATTYYWYFDVWGQGTTVTVSS VL: DVVMTQSPLSLPVTLGQPASISCRSSQSIVHSNGNTYLEWYLQKPGQSPQLLIYKVSNRFSGVPDRFSGSGSGTDFTLKISRVEAEDVGVYYCFQGSHVPLTFGQGTKLEIK	0.0237 s⁻¹
toripalimab Fab L.V56Y (Fab, V domains shown, as the heavy chain of Sm3; light chain of Sm3 with this change; numbers count from the chain's first residue; source: Brevibacillus, culture supernatant (ammonium sulfate precipitate); not shown: 6xHis, C-terminal, kept; 6xHN, C-terminal, kept) VH: QGQLVQSGAEVKKPGASVKVSCKASGYTFTDYEMHWVRQAPIHGLEWIGVIESETGGTAYNQKFKGRVTITADKSTSTAYMELSSLRSEDTAVYYCAREGITTVATTYYWYFDVWGQGTTVTVSS VL: DVVMTQSPLSLPVTLGQPASISCRSSQSIVHSNGNTYLEWYLQKPGQSPQLLIYKYSNRFSGVPDRFSGSGSGTDFTLKISRVEAEDVGVYYCFQGSHVPLTFGQGTKLEIK	0.0104 s⁻¹

Query string: Which koff value is on record for toripalimab Fab L.V99Q (Fab, V domains shown, as the heavy chain of Sm3; light chain of Sm3 with this change; numbers count from the chain's first residue; source: Brevibacillus, culture supernatant (ammonium sulfate precipitate); not shown: 6xHis, C-terminal, kept; 6xHN, C-terminal, kept) VH: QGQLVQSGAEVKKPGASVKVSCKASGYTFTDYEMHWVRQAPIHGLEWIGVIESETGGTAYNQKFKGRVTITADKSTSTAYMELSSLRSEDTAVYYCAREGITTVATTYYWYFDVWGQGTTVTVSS VL: DVVMTQSPLSLPVTLGQPASISCRSSQSIVHSNGNTYLEWYLQKPGQSPQLLIYKVSNRFSGVPDRFSGSGSGTDFTLKISRVEAEDVGVYYCFQGSHQPLTFGQGTKLEIK ?
Result string: 0.0167 s⁻¹

Query string: Can you handle toripalimab Fab L.L101M (Fab, V domains shown, as the heavy chain of Sm3; light chain of Sm3 with this change; numbers count from the chain's first residue; source: Brevibacillus, culture supernatant (ammonium sulfate precipitate); not shown: 6xHis, C-terminal, kept; 6xHN, C-terminal, kept) VH: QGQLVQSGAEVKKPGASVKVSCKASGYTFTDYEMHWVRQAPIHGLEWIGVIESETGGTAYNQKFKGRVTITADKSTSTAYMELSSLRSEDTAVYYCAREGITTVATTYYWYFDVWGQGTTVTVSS VL: DVVMTQSPLSLPVTLGQPASISCRSSQSIVHSNGNTYLEWYLQKPGQSPQLLIYKVSNRFSGVPDRFSGSGSGTDFTLKISRVEAEDVGVYYCFQGSHVPMTFGQGTKLEIK next?
Result string: 0.000673 s⁻¹

Query string: Another binder: toripalimab Fab L.P100A (Fab, V domains shown, as the heavy chain of Sm3; light chain of Sm3 with this change; numbers count from the chain's first residue; source: Brevibacillus, culture supernatant (ammonium sulfate precipitate); not shown: 6xHis, C-terminal, kept; 6xHN, C-terminal, kept) VH: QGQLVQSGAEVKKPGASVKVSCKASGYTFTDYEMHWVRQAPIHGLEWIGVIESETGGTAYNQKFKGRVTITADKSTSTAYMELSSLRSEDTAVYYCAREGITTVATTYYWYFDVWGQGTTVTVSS VL: DVVMTQSPLSLPVTLGQPASISCRSSQSIVHSNGNTYLEWYLQKPGQSPQLLIYKVSNRFSGVPDRFSGSGSGTDFTLKISRVEAEDVGVYYCFQGSHVALTFGQGTKLEIK
Result string: 0.00349 s⁻¹
